experimental protocol: Acute toxicity, rat
settings: in vivo, iv
readout type: LD50

* O=C(O)c1ccccc1C(=O)N1CCSC1 | > 5000 mg/kg

* * *

Entries and their change in vivo at 10 mg/kg values follow.
Tested on: mucus production of rabbit
experimental protocol: Activity on mucus production of rabbit (method of R. Scuri and Coll.)
Format: in vivo
settings: Oryctolagus cuniculus, iv; 10 mg/kg i.v.; 0-4 h vs -4-0 h; read-out: Mucoproduction Var. %
readout type: change in vivo at 10 mg/kg (%)

• CC(=O)N[C@@H](CS)C(=O)O [N--Acetylcysteine, reference compound] = 49.8
• O=C(O)c1ccccc1C(=O)N1CCSC1c1ccccc1 (stereo not drawn) [CO/1220] = 43.5
• O=C(O)c1cccnc1C(=O)N1CCSC1 [CO/1242] = 39
• CC(S)C(=O)NCC(=O)O (racemic) [Mercaptopropionylglycine] = 33.8
• CCCC1SCCN1C(=O)c1ccccc1C(=O)O (stereo not drawn) [CO/1226] = 26.9
• O=C(O)c1ccccc1C(=O)N1CCSC1 [CO/1177] = 71

* * *

experimental protocol: Acute toxicity, mouse
settings: in vivo, iv
readout type: LD50 (mg/kg)

* O=C(O)c1ccccc1C(=O)N1CCSC1 | 3000

* * *

experimental protocol: Acute toxicity, rat
settings: in vivo, po
readout type: LD50

* O=C(O)c1ccccc1C(=O)N1CCSC1 [CO/1177] | > 5000 mg/kg

* * *

experimental protocol: Acute toxicity, mouse
settings: in vivo, po
readout type: LD50

* O=C(O)c1ccccc1C(=O)N1CCSC1 | > 5000 mg/kg
